Ref: BigSolDB 2.1

Settings: in isopropanol, 328.15 K
READOUT_KIND: solubility (mole fraction)
// return just the number, without any unit appended

# solubility (mole fraction) of O=C1Nc2ccccc2C1=O = 0.00867

###

Settings: in ethyl acetate, 328.15 K
READOUT_KIND: solubility (mole fraction)
Provide a numeric answer; units are not to be included.

// field: solubility (mole fraction); key: O=C1Nc2ccccc2C1=O ; value = 0.0111

###

Conditions: in ethanol, 338.15 K
READOUT_KIND: solubility (mole fraction)
Enter a number only.

solubility (mole fraction) reported for this compound O=C1Nc2ccccc2C1=O : 0.00897
